Assay system: T1, huCDH19(44-141)::muCDH19(140-770) with Flag tag (construct B, Hu EC1) (human/mouse chimera)
T1 construct: leader left out; the entry starts at residue 44; also called C137897
Method notes: flow cytometry, transfected 293T cells
Property: binding result

hu anti-<huCDH19> 4A9 VH::huIgG1z + 4A9 (1-239)(F47L) VL::huLLC-C1 (Ab ID 14056) (antibody, V domains shown, Engineered variant of 4A9; the entries already carry the changes; Bin 1) VH: QVQLQESGPGLVKPSETLSLTCTVSGGSISGYYWSWIRQPPGKGLEWFAYFSYSGSTNYNPSLKSRVTLSVDTSKNQFSLKLSSVTAADTAVYYCARNWAFHFDFWGQGTLVTVSS VL: QSVLTQPPSVSGAPGQRVTISCTGSSSNIGTGYAVHWYQQLPGTAPKLLIYGNNNRPSGVPDRFSGSKSGTSASLAITGLQAEDEADYYCQSYDSRLSGWVFGGGTKLTVLG | binds
anti-CDH19 antibody 2G6 (Ab ID 13588) (antibody, human IgG1, lambda, V domains shown, Bin 4) VH: QVQLVESGGGVVQPGRSLRLSCAASGFTFSSYGMHWVRQAPGKGLEWVAFIWYDGSNKYYADSVKDRFTISRDNSKNTLYLQMKSLRAEDTAVYYCARRAGIIGTIGYYYGMDVWGQGTTVTVSS VL: SYELTQPPSVSVSPGQTASITCSGDRLGEKYTCWYQQRPGQSPLLVIYQDTKRPSGIPERFSGSNSGNTATLTISGTQAMDEADYYCQAWDSSTVVFGGGTKLTVLG | binds
hu anti-<huCDH19> 2G6 (1-477)(R17G,D61E,D72E,K94N) VH::huIgG1z + 2G6 (1-234)(C42S,D110E) VL::huLLC-C1 (Ab ID 14039) (antibody, V domains shown, Engineered variant of 2G6; the entries already carry the changes; Bin 4) VH: QVQLVESGGGVVQPGGSLRLSCAASGFTFSSYGMHWVRQAPGKGLEWVAFIWYEGSNKYYAESVKDRFTISRDNSKNTLYLQMNSLRAEDTAVYYCARRAGIIGTIGYYYGMDVWGQGTTVTVSS VL: SYELTQPPSVSVSPGQTASITCSGDRLGEKYTSWYQQRPGQSPLLVIYQDTKRPSGIPERFSGSNSGNTATLTISGTQAMDEADYYCQAWESSTVVFGGGTKLTVLG | binds

Provenance of the data: patent US20220127354A1
